Provenance of the data: paper PMC11052071

- Tgt: JAK3 (Homo sapiens, UniProt P52333)
- Sequence (P52333 whole entry): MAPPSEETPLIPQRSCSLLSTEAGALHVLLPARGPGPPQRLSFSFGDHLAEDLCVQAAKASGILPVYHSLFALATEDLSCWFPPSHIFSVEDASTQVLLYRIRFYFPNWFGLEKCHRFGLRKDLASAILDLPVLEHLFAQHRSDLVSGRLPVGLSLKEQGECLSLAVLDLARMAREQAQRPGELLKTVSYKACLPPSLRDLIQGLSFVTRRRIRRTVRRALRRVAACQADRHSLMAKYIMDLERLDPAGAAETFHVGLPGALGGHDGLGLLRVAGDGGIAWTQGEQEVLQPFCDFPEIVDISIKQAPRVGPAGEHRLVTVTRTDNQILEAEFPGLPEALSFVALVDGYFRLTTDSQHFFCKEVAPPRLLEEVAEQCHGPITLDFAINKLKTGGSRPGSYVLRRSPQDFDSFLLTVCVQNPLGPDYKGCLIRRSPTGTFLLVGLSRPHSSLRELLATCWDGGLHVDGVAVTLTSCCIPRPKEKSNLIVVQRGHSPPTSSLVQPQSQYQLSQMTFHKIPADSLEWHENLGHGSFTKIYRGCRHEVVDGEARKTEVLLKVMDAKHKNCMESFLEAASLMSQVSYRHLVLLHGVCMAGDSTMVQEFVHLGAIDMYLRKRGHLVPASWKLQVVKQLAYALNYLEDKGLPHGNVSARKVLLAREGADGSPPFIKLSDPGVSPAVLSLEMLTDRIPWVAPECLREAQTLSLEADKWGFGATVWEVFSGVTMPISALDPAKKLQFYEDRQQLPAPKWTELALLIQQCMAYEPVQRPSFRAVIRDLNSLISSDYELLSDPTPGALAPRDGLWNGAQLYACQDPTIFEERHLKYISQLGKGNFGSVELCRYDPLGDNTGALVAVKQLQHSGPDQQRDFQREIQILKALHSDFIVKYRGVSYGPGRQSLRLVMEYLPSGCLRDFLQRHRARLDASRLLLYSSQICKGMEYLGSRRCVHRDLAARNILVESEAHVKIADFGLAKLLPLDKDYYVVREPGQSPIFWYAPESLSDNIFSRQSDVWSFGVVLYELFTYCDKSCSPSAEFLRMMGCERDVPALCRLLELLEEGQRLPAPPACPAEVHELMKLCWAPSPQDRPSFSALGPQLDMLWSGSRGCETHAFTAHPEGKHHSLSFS
- Experiment Description: Z'-LYTE enzyme activity assay (SelectScreen Kinase Profiling), JAK3
- Setup Conditions: IC50 JAK3, ATP at app. Km
pIC50: −log10 of the molar value.
Please use true whenever pIC50 is not below 8, and false whenever it is.

{"Molecule": "CCS(=O)(=O)N1CC2(C1)CC(CC#N)(n1cc(-c3ncnc4[nH]ccc34)cn1)C2", "Group": "false"}
{"Molecule": "N#CCC1(n2cc(-c3ncnc4[nH]ccc34)cn2)CCS(=O)(=O)CC1", "Group": "false"}
{"Molecule": "CCS(=O)(=O)N1CC2(CCC2(CC#N)n2cc(-c3ncnc4[nH]ccc34)cn2)C1 (stereo not shown)", "Group": "false"}
{"Molecule": "CCS(=O)(=O)N1CCC12CC(CC#N)(n1cc(-c3ncnc4[nH]ccc34)cn1)C2 (stereo not shown)", "Group": "false"}
{"Molecule": "CCS(=O)(=O)NC1CC2(C1)CC(CC#N)(n1cc(-c3ncnc4[nH]ccc34)cn1)C2 (stereo not shown)", "Group": "true"}

---

- Tgt: JAK1 (Homo sapiens, UniProt P23458)
- Sequence (P23458 whole entry): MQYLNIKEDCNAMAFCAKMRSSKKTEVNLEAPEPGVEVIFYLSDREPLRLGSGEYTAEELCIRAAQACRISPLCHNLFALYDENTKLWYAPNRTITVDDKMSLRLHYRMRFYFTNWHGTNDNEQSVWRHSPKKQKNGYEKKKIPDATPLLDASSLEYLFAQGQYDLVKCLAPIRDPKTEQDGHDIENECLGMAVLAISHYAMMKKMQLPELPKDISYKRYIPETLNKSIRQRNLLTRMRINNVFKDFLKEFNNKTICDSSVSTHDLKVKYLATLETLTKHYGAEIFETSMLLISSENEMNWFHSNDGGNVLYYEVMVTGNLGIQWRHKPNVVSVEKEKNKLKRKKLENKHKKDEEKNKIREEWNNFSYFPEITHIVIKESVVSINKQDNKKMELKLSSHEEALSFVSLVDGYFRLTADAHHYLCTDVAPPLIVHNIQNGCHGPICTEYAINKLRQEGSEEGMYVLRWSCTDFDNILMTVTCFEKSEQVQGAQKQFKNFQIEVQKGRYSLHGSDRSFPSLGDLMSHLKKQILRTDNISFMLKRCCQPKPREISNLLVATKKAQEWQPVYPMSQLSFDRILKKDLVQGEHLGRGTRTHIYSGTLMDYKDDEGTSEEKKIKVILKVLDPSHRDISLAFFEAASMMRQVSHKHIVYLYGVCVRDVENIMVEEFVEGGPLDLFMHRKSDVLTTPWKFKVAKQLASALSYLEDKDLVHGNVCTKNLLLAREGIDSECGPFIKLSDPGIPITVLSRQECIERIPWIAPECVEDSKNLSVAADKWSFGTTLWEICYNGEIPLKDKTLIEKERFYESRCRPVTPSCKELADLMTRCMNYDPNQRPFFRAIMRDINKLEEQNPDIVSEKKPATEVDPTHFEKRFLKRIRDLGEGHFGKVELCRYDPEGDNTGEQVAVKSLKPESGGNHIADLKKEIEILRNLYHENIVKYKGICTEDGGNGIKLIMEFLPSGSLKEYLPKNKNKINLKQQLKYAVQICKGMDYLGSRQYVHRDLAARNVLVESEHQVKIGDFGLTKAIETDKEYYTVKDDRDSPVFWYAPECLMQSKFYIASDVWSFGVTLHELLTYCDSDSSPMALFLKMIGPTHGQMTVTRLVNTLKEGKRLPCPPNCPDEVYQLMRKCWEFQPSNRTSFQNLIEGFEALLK
- Experiment Description: Z'-LYTE enzyme activity assay (SelectScreen Kinase Profiling), JAK1
- Setup Conditions: IC50 JAK1, ATP at app. Km

{"Compound": "N#CCC1(n2cc(-c3ncnc4[nH]ccc34)cn2)CC2(CC(NS(=O)(=O)C(F)(F)F)C2)C1 (stereo not shown) [WU6]", "Units Of Measure": "nM", "IC50": 0.6}
{"Compound": "CC(C)(C)NS(=O)(=O)NC1CC2(C1)CC(CC#N)(n1cc(-c3ncnc4[nH]ccc34)cn1)C2 (stereo not shown) [WU5]", "Units Of Measure": "nM", "IC50": 1.47}
{"Compound": "CCS(=O)(=O)NC1CC2(C1)CC(CC#N)(n1cc(-c3ncnc4[nH]ccc34)cn1)C2 (stereo not shown) [WU4]", "Units Of Measure": "nM", "IC50": 0.453}
{"Compound": "N#CCC1(n2cc(-c3ncnc4[nH]ccc34)cn2)CCS(=O)(=O)CC1 [WU8]", "Units Of Measure": "nM", "IC50": 1.07}

---

- Tgt: UniProtKB O60674
- Experiment Description: Z'-LYTE enzyme activity assay (SelectScreen Kinase Profiling), JAK2
- Setup Conditions: IC50 JAK2, ATP at app. Km
pIC50: −log10 of the molar value.
Assign Met to entries whose pIC50 meets or exceeds 9; assign Not met to the rest.

{"Molecule": "CS(=O)(=O)C1CC(CC#N)(n2cc(-c3ncnc4[nH]ccc34)cn2)C1 (centres unmarked)", "Group": "Met"}
{"Molecule": "CCS(=O)(=O)N1CCC12CC(CC#N)(n1cc(-c3ncnc4[nH]ccc34)cn1)C2 (centres unmarked)", "Group": "Not met"}
{"Molecule": "CC(C)(C)NS(=O)(=O)NC1CC2(C1)CC(CC#N)(n1cc(-c3ncnc4[nH]ccc34)cn1)C2 (centres unmarked)", "Group": "Met"}
{"Molecule": "N#CCC1(n2cc(-c3ncnc4[nH]ccc34)cn2)CS(=O)(=O)C1", "Group": "Met"}
{"Molecule": "CCS(=O)(=O)NC1CC2(C1)CC(CC#N)(n1cc(-c3ncnc4[nH]ccc34)cn1)C2 (centres unmarked)", "Group": "Met"}

---

- Tgt: TYK2 (Homo sapiens)
- Experiment Description: Z'-LYTE enzyme activity assay (SelectScreen Kinase Profiling), TYK2
- Setup Conditions: IC50 TYK2, ATP at 1 mM
Assay Readout: IC50 (nM)

{"Molecule": "CCS(=O)(=O)N1CCC2(CC1)CCC(CC#N)(n1cc(-c3ncnc4[nH]ccc34)cn1)CC2", "Experimental Value": 275}
{"Molecule": "N#CCC1(n2cc(-c3ncnc4[nH]ccc34)cn2)CC2(CC(NS(=O)(=O)C(F)(F)F)C2)C1 (stereo not shown)", "Experimental Value": 6.48}
{"Molecule": "CC(C)(C)NS(=O)(=O)NC1CC2(C1)CC(CC#N)(n1cc(-c3ncnc4[nH]ccc34)cn1)C2 (stereo not shown)", "Experimental Value": 58.9}
{"Molecule": "N#CCC1(n2cc(-c3ncnc4[nH]ccc34)cn2)CCS(=O)(=O)CC1", "Experimental Value": 49.1}

---

IC50 values by entry
- Tgt: UniProt P29597
- Experiment Description: Z'-LYTE enzyme activity assay (SelectScreen Kinase Profiling), TYK2
- Setup Conditions: IC50 TYK2, ATP at app. Km

{"Molecule": "CCS(=O)(=O)NC1CC2(C1)CC(CC#N)(n1cc(-c3ncnc4[nH]ccc34)cn1)C2 (stereo not shown)", "Units Of Measure": "nM", "IC50": 0.417}
{"Molecule": "N#CCC1(n2cc(-c3ncnc4[nH]ccc34)cn2)CCS(=O)(=O)CC1", "Units Of Measure": "nM", "IC50": 2.84}
{"Molecule": "CC(C)(C)NS(=O)(=O)NC1CC2(C1)CC(CC#N)(n1cc(-c3ncnc4[nH]ccc34)cn1)C2 (stereo not shown)", "Units Of Measure": "nM", "IC50": 3.11}
{"Molecule": "CCS(=O)(=O)N1CCC2(CC1)CCC(CC#N)(n1cc(-c3ncnc4[nH]ccc34)cn1)CC2", "Units Of Measure": "nM", "IC50": 12.1}
{"Molecule": "CCS(=O)(=O)N1CC2(C1)CC(CC#N)(n1cc(-c3ncnc4[nH]ccc34)cn1)C2", "Units Of Measure": "nM", "IC50": 29.4}
{"Molecule": "CS(=O)(=O)C1CC(CC#N)(n2cc(-c3ncnc4[nH]ccc34)cn2)C1 (stereo not shown)", "Units Of Measure": "nM", "IC50": 4.56}
{"Molecule": "N#CCC1(n2cc(-c3ncnc4[nH]ccc34)cn2)CC2(CC(NS(=O)(=O)C(F)(F)F)C2)C1 (stereo not shown)", "Units Of Measure": "nM", "IC50": 0.766}

---

- Tgt: TYK2 (Homo sapiens, UniProt P29597)
- Sequence (P29597 whole entry): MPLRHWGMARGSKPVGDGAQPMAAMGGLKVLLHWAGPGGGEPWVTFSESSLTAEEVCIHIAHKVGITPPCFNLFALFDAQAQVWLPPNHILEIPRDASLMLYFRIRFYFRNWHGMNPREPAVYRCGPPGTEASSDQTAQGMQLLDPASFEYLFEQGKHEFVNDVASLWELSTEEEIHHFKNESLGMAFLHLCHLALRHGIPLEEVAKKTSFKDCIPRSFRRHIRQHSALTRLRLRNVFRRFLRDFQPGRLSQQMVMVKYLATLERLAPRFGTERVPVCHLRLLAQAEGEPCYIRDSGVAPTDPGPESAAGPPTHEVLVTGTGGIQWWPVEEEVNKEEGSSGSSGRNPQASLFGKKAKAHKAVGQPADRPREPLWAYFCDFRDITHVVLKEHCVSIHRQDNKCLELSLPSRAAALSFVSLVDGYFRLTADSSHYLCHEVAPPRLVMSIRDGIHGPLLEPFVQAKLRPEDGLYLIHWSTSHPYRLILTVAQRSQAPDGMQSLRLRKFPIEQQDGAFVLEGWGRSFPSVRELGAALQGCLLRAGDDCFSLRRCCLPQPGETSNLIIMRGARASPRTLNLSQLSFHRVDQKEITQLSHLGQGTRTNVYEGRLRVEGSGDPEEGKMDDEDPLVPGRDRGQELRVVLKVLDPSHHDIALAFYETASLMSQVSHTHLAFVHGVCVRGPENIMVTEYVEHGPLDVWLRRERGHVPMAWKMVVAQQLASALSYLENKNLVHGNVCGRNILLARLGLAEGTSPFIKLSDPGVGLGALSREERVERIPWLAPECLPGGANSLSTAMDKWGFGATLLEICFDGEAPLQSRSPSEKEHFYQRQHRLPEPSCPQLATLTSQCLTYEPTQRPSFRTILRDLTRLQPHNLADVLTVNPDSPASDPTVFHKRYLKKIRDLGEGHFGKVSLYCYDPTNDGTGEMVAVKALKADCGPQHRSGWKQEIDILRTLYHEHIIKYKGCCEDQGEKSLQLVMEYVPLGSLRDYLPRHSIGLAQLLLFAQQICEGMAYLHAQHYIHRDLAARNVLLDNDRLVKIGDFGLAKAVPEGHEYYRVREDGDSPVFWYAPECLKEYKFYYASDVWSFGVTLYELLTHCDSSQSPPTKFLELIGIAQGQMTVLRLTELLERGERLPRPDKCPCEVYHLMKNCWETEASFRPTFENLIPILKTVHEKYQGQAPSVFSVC
- Experiment Description: Z'-LYTE enzyme activity assay (SelectScreen Kinase Profiling), TYK2
- Setup Conditions: IC50 TYK2, ATP at 1 mM
Each entry below carries its recorded IC50.
Assay Readout: IC50 (nM)

{"Molecule": "CS(=O)(=O)C1CC(CC#N)(n2cc(-c3ncnc4[nH]ccc34)cn2)C1 (stereo not shown) [WU10]", "Experimental Value": 108}
{"Molecule": "CCS(=O)(=O)NC1CC2(C1)CC(CC#N)(n1cc(-c3ncnc4[nH]ccc34)cn1)C2 (stereo not shown) [WU4]", "Experimental Value": 1.09}
{"Molecule": "CCS(=O)(=O)N1CC(CC#N)(n2cc(-c3ncnc4[nH]ccc34)cn2)C1 [BARI, baricitinib, reference compound]", "Experimental Value": 42.3}
{"Molecule": "N#CCC1(n2cc(-c3ncnc4[nH]ccc34)cn2)CS(=O)(=O)C1 [WU9]", "Experimental Value": 34.7}

---

The following compounds are shown together with reported IC50 values.
- Tgt: JAK2 (Homo sapiens, UniProt O60674)
- Sequence (O60674 whole entry): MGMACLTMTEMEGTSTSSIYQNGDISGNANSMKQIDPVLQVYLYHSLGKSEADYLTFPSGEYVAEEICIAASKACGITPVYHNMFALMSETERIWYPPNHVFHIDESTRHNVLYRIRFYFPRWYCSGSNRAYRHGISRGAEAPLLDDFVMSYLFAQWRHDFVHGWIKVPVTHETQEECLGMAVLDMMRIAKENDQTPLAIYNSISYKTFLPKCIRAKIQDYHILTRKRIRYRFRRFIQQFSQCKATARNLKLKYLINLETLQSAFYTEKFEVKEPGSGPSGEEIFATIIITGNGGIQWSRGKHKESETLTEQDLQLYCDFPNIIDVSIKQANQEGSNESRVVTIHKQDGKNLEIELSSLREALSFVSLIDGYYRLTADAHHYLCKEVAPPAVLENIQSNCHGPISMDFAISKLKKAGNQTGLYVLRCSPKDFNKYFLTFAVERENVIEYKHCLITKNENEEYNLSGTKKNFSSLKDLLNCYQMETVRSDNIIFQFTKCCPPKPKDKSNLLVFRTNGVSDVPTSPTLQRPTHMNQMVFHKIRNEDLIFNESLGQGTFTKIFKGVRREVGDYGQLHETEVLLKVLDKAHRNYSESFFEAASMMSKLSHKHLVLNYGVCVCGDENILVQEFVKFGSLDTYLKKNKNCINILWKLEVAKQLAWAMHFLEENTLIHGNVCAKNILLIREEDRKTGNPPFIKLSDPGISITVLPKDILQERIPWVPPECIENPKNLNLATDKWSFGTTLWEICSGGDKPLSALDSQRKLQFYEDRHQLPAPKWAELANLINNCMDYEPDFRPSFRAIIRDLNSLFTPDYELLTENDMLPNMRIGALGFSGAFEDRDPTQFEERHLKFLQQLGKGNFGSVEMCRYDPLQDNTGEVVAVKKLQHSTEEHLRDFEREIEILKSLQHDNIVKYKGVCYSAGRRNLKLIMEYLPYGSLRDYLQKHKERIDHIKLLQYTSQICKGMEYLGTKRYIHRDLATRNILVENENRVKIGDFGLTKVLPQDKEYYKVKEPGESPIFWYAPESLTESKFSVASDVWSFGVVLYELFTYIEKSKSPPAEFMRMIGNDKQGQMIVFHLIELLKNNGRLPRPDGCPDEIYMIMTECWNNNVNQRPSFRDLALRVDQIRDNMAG
- Experiment Description: Z'-LYTE enzyme activity assay (SelectScreen Kinase Profiling), JAK2
- Setup Conditions: IC50 JAK2, ATP at 1 mM

{"Compound": "CCS(=O)(=O)NC1CC2(C1)CC(CC#N)(n1cc(-c3ncnc4[nH]ccc34)cn1)C2 (stereo not shown)", "IC50 (nM)": 2.26}
{"Compound": "N#CCC1(n2cc(-c3ncnc4[nH]ccc34)cn2)CS(=O)(=O)C1", "IC50 (nM)": 9.67}
{"Compound": "N#CCC1(n2cc(-c3ncnc4[nH]ccc34)cn2)CCS(=O)(=O)CC1", "IC50 (nM)": 14.9}
{"Compound": "CS(=O)(=O)C1CC(CC#N)(n2cc(-c3ncnc4[nH]ccc34)cn2)C1 (stereo not shown)", "IC50 (nM)": 6.11}
{"Compound": "CC(C)(C)NS(=O)(=O)NC1CC2(C1)CC(CC#N)(n1cc(-c3ncnc4[nH]ccc34)cn1)C2 (stereo not shown)", "IC50 (nM)": 9.88}
{"Compound": "CCS(=O)(=O)N1CCC2(CC1)CCC(CC#N)(n1cc(-c3ncnc4[nH]ccc34)cn1)CC2", "IC50 (nM)": 13.8}
{"Compound": "N#CCC1(n2cc(-c3ncnc4[nH]ccc34)cn2)CC2(CC(NS(=O)(=O)C(F)(F)F)C2)C1 (stereo not shown)", "IC50 (nM)": 6.96}

---

- Tgt: JAK1 (Homo sapiens, UniProt P23458)
- Experiment Description: Z'-LYTE enzyme activity assay (SelectScreen Kinase Profiling), JAK1
- Setup Conditions: IC50 JAK1, ATP at 1 mM
pIC50: −log10 of the molar value.

{"Compound": "CC(C)(C)NS(=O)(=O)NC1CC2(C1)CC(CC#N)(n1cc(-c3ncnc4[nH]ccc34)cn1)C2 (stereo not shown)", "pIC50": 8.09}
{"Compound": "N#CCC1(n2cc(-c3ncnc4[nH]ccc34)cn2)CC2(CC(NS(=O)(=O)C(F)(F)F)C2)C1 (stereo not shown)", "pIC50": 8.46}
{"Compound": "CCS(=O)(=O)NC1CC2(C1)CC(CC#N)(n1cc(-c3ncnc4[nH]ccc34)cn1)C2 (stereo not shown)", "pIC50": 9.28}
{"Compound": "N#CCC1(n2cc(-c3ncnc4[nH]ccc34)cn2)CCS(=O)(=O)CC1", "pIC50": 8.15}
